# Test system: Staphylococcus aureus
# protocolText: Antibacterial activity against Staphylococcus aureus ATCC 6538 after 24 hrs by broth microdilution method
# Assay type: functional
# conditionDescription: ATCC 6538, 24 h
Reported MIC by item:
observable: MIC

[[record]]
compound = "O=[N+]([O-])c1cc(-c2nnc(SCc3ccc(Br)cc3)o2)cc([N+](=O)[O-])c1"
targetentity = "Staphylococcus aureus"
observable = "MIC"
result = "> 125 µM"

[[record]]
compound = "COc1ccc(CSc2nnc(-c3cc([N+](=O)[O-])cc([N+](=O)[O-])c3)o2)cc1"
targetentity = "Staphylococcus aureus"
observable = "MIC"
result = "> 500 µM"

[[record]]
compound = "CN[C@H](CC(C)C)C(=O)N[C@H]1C(=O)N[C@@H](CC(N)=O)C(=O)N[C@H]2C(=O)N[C@H]3C(=O)N[C@H](C(=O)N[C@H](C(=O)O)c4cc(O)cc(O)c4-c4cc3ccc4O)[C@H](O)c3ccc(c(Cl)c3)Oc3cc2cc(c3O[C@@H]2O[C@H](CO)[C@@H](O)[C@H](O)[C@H]2O[C@H]2C[C@](C)(N)[C@H](O)[C@H](C)O2)Oc2ccc(cc2Cl)[C@H]1O [VANCOMYCIN]"
targetentity = "Staphylococcus aureus"
observable = "MIC"
result = "0.35 µM"


====

Reported MIC by item:
# Test system: Mycobacterium tuberculosis
# protocolText: Antimycobacterial activity against Mycobacterium tuberculosis CNCTC My 331/88 after 14 days by micromethod
# Type: functional
# conditionDescription: CNCTC My 331/88, 336 h
observable: MIC

[[record]]
cpdsmiles = "CC(=O)Nc1cc(-c2nnc(SCc3ccc([N+](=O)[O-])cc3)o2)cc([N+](=O)[O-])c1"
result = "> 500 µM"

[[record]]
cpdsmiles = "O=[N+]([O-])c1cc(O)cc(-c2nnc(SCc3ccc(Cl)c(Cl)c3)o2)c1"
result = "> 250 µM"

[[record]]
cpdsmiles = "COc1ccc(CSc2nnc(-c3cc(NC(C)=O)cc([N+](=O)[O-])c3)o2)cc1"
result = "> 1000 µM"

[[record]]
cpdsmiles = "CC(=O)Nc1cc(-c2nnc(SCc3ccccc3)o2)cc([N+](=O)[O-])c1"
result = "> 1000 µM"

[[record]]
cpdsmiles = "CC(=O)Nc1cc(-c2nnc(SCc3ccc(Br)cc3)o2)cc([N+](=O)[O-])c1"
result = "> 500 µM"


====

Reported MIC by item:
# Tested on: Mycobacterium kansasii
# protocolText: Antimycobacterial activity against Mycobacterium kansasii 6509/96 clinical isolate after 21 days by micromethod
# Assay type: functional
# conditionDescription: 6509/96, 504 h
observable: MIC (µM)

[[record]]
cpdsmiles = "O=[N+]([O-])c1cc(-c2nnc(SC3CCCCC3)o2)cc([N+](=O)[O-])c1"
unit = "µM"
readoutnumber = 0.03

[[record]]
cpdsmiles = "O=[N+]([O-])c1cc(-c2nnc(SCc3ccccc3)o2)cc(C(F)(F)F)c1"
unit = "µM"
readoutnumber = 4

[[record]]
cpdsmiles = "O=[N+]([O-])c1cc(-c2nnc(SCc3ccc(Cl)cc3)o2)cc([N+](=O)[O-])c1"
unit = "µM"
readoutnumber = 0.03

[[record]]
cpdsmiles = "O=[N+]([O-])c1cc(-c2nnc(SCc3ccccc3)o2)cc([N+](=O)[O-])c1"
unit = "µM"
readoutnumber = 0.5

[[record]]
cpdsmiles = "O=[N+]([O-])c1cc(-c2nnc(SCc3ccc(Cl)c(Cl)c3)o2)cc([N+](=O)[O-])c1"
unit = "µM"
readoutnumber = 0.03

[[record]]
cpdsmiles = "COc1ccc(CSc2nnc(-c3cc([N+](=O)[O-])cc(C(F)(F)F)c3)o2)cc1"
unit = "µM"
readoutnumber = 2


====

# System: Mycobacterium kansasii
# protocolText: Antimycobacterial activity against Mycobacterium kansasii CNCTC My 235/80 after 14 days by micromethod
# Assay type: functional
# conditionDescription: CNCTC My 235/80, 336 h
Reported MIC by item:
observable: MIC

[[record]]
cpdsmiles = "NNC(=O)c1ccncc1"
result = "> 250 µM"

[[record]]
cpdsmiles = "CC(=O)Nc1cc(-c2nnc(SCc3ccc([N+](=O)[O-])cc3)o2)cc([N+](=O)[O-])c1"
result = "> 500 µM"

[[record]]
cpdsmiles = "CC(=O)Nc1cc(-c2nnc(SCc3ccc(Cl)cc3)o2)cc([N+](=O)[O-])c1"
result = "> 1000 µM"

[[record]]
cpdsmiles = "COc1ccc(CSc2nnc(-c3cc(NC(C)=O)cc([N+](=O)[O-])c3)o2)cc1"
result = "> 1000 µM"

[[record]]
cpdsmiles = "CC(=O)Nc1cc(-c2nnc(SCc3ccccc3)o2)cc([N+](=O)[O-])c1"
result = "> 1000 µM"

[[record]]
cpdsmiles = "CC(=O)Nc1cc(-c2nnc(SCc3ccc(Br)cc3)o2)cc([N+](=O)[O-])c1"
result = "> 500 µM"

[[record]]
cpdsmiles = "CCCSc1nnc(-c2cc([N+](=O)[O-])cc([N+](=O)[O-])c2)o1"
result = "2 µM"

[[record]]
cpdsmiles = "O=[N+]([O-])c1cc(-c2nnc(SCc3ccc(Cl)cc3)o2)cc(C(F)(F)F)c1"
result = "1 µM"

[[record]]
cpdsmiles = "CSc1nnc(-c2cc([N+](=O)[O-])cc([N+](=O)[O-])c2)o1"
result = "16 µM"

